- test target: human PD-L1 (Homo sapiens)
- Construct: purchased Cisbio Bioassays SAS 64PD1PEG
- Sequence (Q9NZQ7 19-238 limits assumed): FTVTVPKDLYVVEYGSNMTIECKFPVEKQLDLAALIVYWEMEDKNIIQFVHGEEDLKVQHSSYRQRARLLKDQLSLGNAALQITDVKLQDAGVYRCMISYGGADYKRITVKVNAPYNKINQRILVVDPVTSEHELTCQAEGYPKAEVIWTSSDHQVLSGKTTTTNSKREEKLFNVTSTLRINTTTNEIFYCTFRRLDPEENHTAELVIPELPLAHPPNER
- procedure details: HTRF PD-1/PD-L1 Binding Assay Kit (Cisbio)
- condition context: LLE = −logIC50 − µHPLC logPOWpH 7.4
measured property: LLE (ligand lipophilicity efficiency)

(A) COc1cc(OCc2cccc(-c3ccccc3)c2C)cc(OC)c1CN1CCCC[C@H]1C(=O)OCCF
(B) COc1nc(OCc2cccc(-c3ccccc3)c2C)ccc1CN(C)CCN(C)C(C)=O
Could you check which of A and B has a smaller value for LLE (ligand lipophilicity efficiency)? Let me know the label of the one you choose.
A

(a) COc1nc(OCc2cccc(-c3ccccc3)c2C)ccc1CN(C)CCNC(C)=O
(b) COC(=O)[C@@H]1CCCCN1Cc1c(OC)cc(OCc2cccc(-c3ccccc3)c2C)cc1OC
Recorded LLE (ligand lipophilicity efficiency) values differ for a and b ; which one is higher? Let me know the label of the one you choose.
a

(P) COc1nc(OCc2cccc(-c3ccccc3)c2C)ccc1CNCCN(C)C(C)=O
(Q) COc1nc(OCc2cccc(-c3ccccc3)c2C)ccc1CN(CCNC(C)=O)C(=O)OCCF
Could you check which of P and Q has a smaller value for LLE (ligand lipophilicity efficiency)? Let me know the label of the one you choose.
Q
(Q: 0.8, P: 2.3)

Origin of measurements: paper PMC10385977
